test system: secondary alcohol dehydrogenase (SADH); experiment: Purified secondary alcohol dehydrogenase activity (formation of reduced NAD); type: biochemical, Pseudomonas sp. ATCC 21439
endpoint.label: substrate specificity of purified SADH

Data request: Please report substrate specificity of purified SADH with secondary alcohol dehydrogenase (SADH) for item CCC(C)O (centres unmarked) [2-butanol] .
Data returned: highest

Data request: Please report substrate specificity of purified SADH with secondary alcohol dehydrogenase (SADH) for item OC1CCCCC1 [cyclohexanol] .
Data returned: lower rate

Data request: Please report substrate specificity of purified SADH with secondary alcohol dehydrogenase (SADH) for item CCCCC(C)O (centres unmarked) [2-hexanol] .
Data returned: lower rate

Data request: Please report substrate specificity of purified SADH with secondary alcohol dehydrogenase (SADH) for item CC=O [acetaldehyde] .
Data returned: lower rate

Data request: Please report substrate specificity of purified SADH with secondary alcohol dehydrogenase (SADH) for item CC(O)C(C)O (centres unmarked) [butane 2,3-diol] .
Data returned: lower rate

For every listed record, write down its substrate specificity of purified SADH.
1. CC(O)CCO (centres unmarked) [butane 1,3-diol]
2. CC(C)O [2-propanol]
3. CCCC(C)O (centres unmarked) [2-pentanol]

Data returned:
1. lower rate
2. highest
3. lower rate

---

system: secondary alcohol dehydrogenase (SADH); test: Purified secondary alcohol dehydrogenase activity (formation of reduced NAD); type: biochemical, Pseudomonas sp. ATCC 21439; details: purified SADH, each inhibitor 1 mM, measured spectrofluorometrically
Kindly state % inhibition of SADH activity for each of the entries shown.
Answers are plain numbers, in %.

Examples with their reported % inhibition of SADH activity follow.
Data request: Please report % inhibition of SADH activity with secondary alcohol dehydrogenase (SADH) for item [Co+2] .
Data returned: 0

Data request: Please report % inhibition of SADH activity with secondary alcohol dehydrogenase (SADH) for item [Mg+2] .
Data returned: 0

For every listed record, write down its % inhibition of SADH activity.
1. [Zn+2]
2. [Cu+2]
3. O=C(O)c1cc[c]([Hg+])cc1.[OH-] [p-hydroxymercuribenzoate]
4. c1cnc2c(c1)ccc1cccnc12
5. CCN1C(=O)C=CC1=O [N-ethylmalemide]

Data returned:
[0, 25, 100, 95, 6]

For every listed record, write down its % inhibition of SADH activity.
1. [Fe+3]
2. O=C(O)c1cc(SSc2ccc([N+](=O)[O-])c(C(=O)O)c2)ccc1[N+](=O)[O-]
3. [Fe+2]
4. c1ccc(-c2ccccn2)nc1
5. [N-]=[N+]=[N-] [Sodium azide]

Data returned:
[35, 100, 50, 70, 10]

For every listed record, write down its % inhibition of SADH activity.
1. [Ni+2]
2. [Mn+2]

Data returned:
20
0

---

system: secondary alcohol dehydrogenase; assay: Purified yeast secondary alcohol dehydrogenase: substrates, electron acceptors, inhibitors, stoichiometry; format: biochemical, Pichia sp. NRRL Y-11,328
endpoint.label: oxidation by the purified secondary alcohol dehydrogenase

Data request: For the compound CCCO , give its measured oxidation by the purified secondary alcohol dehydrogenase value.
Data returned: not oxidized

Data request: For the compound CCCCO , give its measured oxidation by the purified secondary alcohol dehydrogenase value.
Data returned: not oxidized

Data request: For the compound CCO , give its measured oxidation by the purified secondary alcohol dehydrogenase value.
Data returned: not oxidized
